- ASSAY_SYSTEM: N-formyl peptide receptor 2 (Homo sapiens)
- Sequence (P25090 whole entry): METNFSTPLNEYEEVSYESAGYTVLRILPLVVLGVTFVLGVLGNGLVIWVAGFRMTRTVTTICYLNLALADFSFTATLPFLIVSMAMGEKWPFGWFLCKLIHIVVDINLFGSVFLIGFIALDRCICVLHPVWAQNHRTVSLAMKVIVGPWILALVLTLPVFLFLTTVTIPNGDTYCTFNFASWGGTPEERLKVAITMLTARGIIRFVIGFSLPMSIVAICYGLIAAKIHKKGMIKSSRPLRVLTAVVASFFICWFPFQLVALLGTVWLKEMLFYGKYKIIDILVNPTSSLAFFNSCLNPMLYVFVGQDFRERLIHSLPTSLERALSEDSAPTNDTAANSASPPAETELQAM
- ASSAY_PROTOCOL: Agonist activity at ALX/FPR2 in human THP1 cells harboring NF-kB-Luc assessed as inhibition of LPS-induced NFkB signalling activation by measuring reduction in TNFalpha secretion pretreated for 30 mins followed by LPS stimulation for 24 hrs by electrochemiluminescence assay
- Type: cell-based
- RUN_PARAMETERS: read-out: IC50
READOUT_KIND: IC50 (nM)
// note: answer is a bare numeric in nM

## Input Give recorded IC50 with N-formyl peptide receptor 2 (Homo sapiens) for the following compound: CCCCC[C@@H](O)c1nc(-c2ccccc2)n(-c2ccccc2)c1/C=C/[C@@H](O)[C@@H](O)CCCC(=O)OC
## Output 7.1

## Input Give recorded IC50 with N-formyl peptide receptor 2 (Homo sapiens) for the following compound: CCC[C@@H](O)c1c(/C=C/[C@@H](O)[C@@H](O)CCCC(=O)OC)nc(C)n1C
## Output 4.8

## Input Give recorded IC50 with N-formyl peptide receptor 2 (Homo sapiens) for the following compound: CCCCC[C@H](O)/C=C/C=C\C=C\C=C\[C@@H](O)[C@@H](O)CCCC(=O)O [LIPOXIN A4]
## Output 7.7

## Input Give recorded IC50 with N-formyl peptide receptor 2 (Homo sapiens) for the following compound: CCCCC[C@H](O)c1nc(-c2ccccc2)oc1/C=C/[C@@H](O)[C@@H](O)CCCC(=O)OC(C)C
## Output 6.7

## Input Give recorded IC50 with N-formyl peptide receptor 2 (Homo sapiens) for the following compound: CCCCC[C@H](O)c1nc(-c2ccccc2)n(-c2ccccc2)c1/C=C/[C@@H](O)[C@@H](O)CCCC(=O)OC
## Output 4.1

## Input Give recorded IC50 with N-formyl peptide receptor 2 (Homo sapiens) for the following compound: CCCCC[C@@H](O)c1nc(-c2ccccc2)oc1/C=C/[C@@H](O)[C@@H](O)CCCC(=O)OC(C)C
## Output 6.5

## Input Give recorded IC50 with N-formyl peptide receptor 2 (Homo sapiens) for the following compound: CCCCC[C@H](O)c1c(/C=C/[C@@H](O)[C@@H](O)CCCC(=O)OC)nc(C)n1C
## Output 3.4

## Input Give recorded IC50 with N-formyl peptide receptor 2 (Homo sapiens) for the following compound: CCCCC[C@@H](O)c1c(/C=C/[C@@H](O)[C@@H](O)CCCC(=O)OC)nc(C)n1C
## Output 5.6

Entry source: ChEMBL document CHEMBL4382216
